pIC50 listing for selected compounds.
EXPERIMENTAL SYSTEM: CB1 receptor (Homo sapiens)
Construct: Perkin Elmer (CB1-CHO cells)
Sequence (P21554 whole entry): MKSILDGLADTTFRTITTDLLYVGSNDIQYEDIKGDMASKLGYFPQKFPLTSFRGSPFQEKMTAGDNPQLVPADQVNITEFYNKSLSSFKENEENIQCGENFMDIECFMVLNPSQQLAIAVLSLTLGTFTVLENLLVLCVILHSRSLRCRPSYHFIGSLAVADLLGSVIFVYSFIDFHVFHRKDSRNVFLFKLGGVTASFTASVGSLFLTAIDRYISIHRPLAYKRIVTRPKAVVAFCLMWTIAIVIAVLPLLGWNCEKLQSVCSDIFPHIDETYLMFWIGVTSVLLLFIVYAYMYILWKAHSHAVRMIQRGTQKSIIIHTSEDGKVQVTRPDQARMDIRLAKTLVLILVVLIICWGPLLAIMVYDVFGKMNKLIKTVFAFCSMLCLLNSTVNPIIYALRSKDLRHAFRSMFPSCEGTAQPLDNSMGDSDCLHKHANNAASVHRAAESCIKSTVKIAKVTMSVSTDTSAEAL
RUN DESCRIPTION: CB1 cAMP antagonist assay (LANCE Ultra cAMP kit)
MEASUREMENT PARAMETERS: CHO cells stably expressing the CB1 receptor; forskolin and agonist CP55940 at EC90
pIC50: −log10 of the molar value.
MEASURE NAME: pIC50

                                    compound          experimental_system        result
 0  NC(=O)Cn1c(=O)c2c(nc(-c3ccccc3Cl)n2-c2ccc(Cl)cc2)n(C2CCCCC2)c1=O [Compound 106]  CB1 receptor (Homo sapiens)        > 7.00
 1  COC(=O)c1ccc(Cn2c(=O)n(C)c(=O)c3c2nc(-c2ccccc2Cl)n3-c2ccc(Cl)cc2)cc1 [Compound 108]  CB1 receptor (Homo sapiens)        > 7.00
 2  NC(=O)Cn1c(=O)c2c(nc(-c3ccccc3Cl)n2-c2ccc(Cl)cc2)n(C2CCOCC2)c1=O [Compound 133]  CB1 receptor (Homo sapiens)        > 7.00
 3  CC(C(N)=O)n1c(=O)c2c(nc(-c3ccccc3Cl)n2-c2ccc(Cl)cc2)n(CC2CCS(=O)(=O)CC2)c1=O (stereo in doubt) [Compound 144]  CB1 receptor (Homo sapiens)        > 7.00
 4  C[C@@H](c1ccc(S(N)(=O)=O)cn1)n1c(=O)n(C)c(=O)c2c1nc(-c1ccccc1Cl)n2-c1ccc(Cl)cc1 [Compound 179]  CB1 receptor (Homo sapiens)        > 7.00
 5  CS(=O)(=O)N1CCC(Cn2c(=O)n(CC(N)=O)c(=O)c3c2nc(-c2ncccc2Cl)n3-c2ccc(Cl)cc2)CC1 [Compound 170]  CB1 receptor (Homo sapiens)        > 7.00
 6  O=c1c2c(nc(-c3ccccc3Cl)n2-c2ccc(Cl)cc2)n(C2CCCCC2)c(=O)n1CCO [Compound 104]  CB1 receptor (Homo sapiens)        > 7.00
 7  CN(CCO)C(=O)c1ccc(Cn2c(=O)n(C)c(=O)c3c2nc(-c2ccccc2Cl)n3-c2ccc(Cl)cc2)cc1 [Compound 126]  CB1 receptor (Homo sapiens)  6.00 to 7.00
 8  C[C@H](c1ccc(C(=O)NCCO)cc1)n1c(=O)n(C)c(=O)c2c1nc(-c1ccccc1Cl)n2-c1ccc(Cl)cc1 [Compound 131]  CB1 receptor (Homo sapiens)        > 7.00
 9  CN1CCC(Cn2c(=O)n(C)c(=O)c3c2nc(-c2ccccc2Cl)n3-c2ccc(Cl)cc2)CC1 [Compound 116]  CB1 receptor (Homo sapiens)        ≤ 5.30
10  NC(=O)Cn1c(=O)c2c(nc(-c3ccccc3Cl)n2-c2ccc(Cl)cc2)n(Cc2ccc([C@@H]3COCCO3)cc2)c1=O [Compound 145]  CB1 receptor (Homo sapiens)        > 7.00
11  Cn1c(=O)c2c(nc(-c3ccccc3Cl)n2-c2ccc(Cl)cc2)n(Cc2ccc(C(=O)NCC(C)(C)O)cn2)c1=O [Compound 166]  CB1 receptor (Homo sapiens)        > 7.00
12  CC(C(N)=O)n1c(=O)c2c(nc(-c3ccccc3Cl)n2-c2ccc(Cl)cc2)n(C2CCOCC2)c1=O (stereo in doubt) [Compound 138]  CB1 receptor (Homo sapiens)  6.00 to 7.00
13  CC(=O)N1CCC(Cn2c(=O)n(C)c(=O)c3c2nc(-c2ccccc2Cl)n3-c2ccc(Cl)cc2)CC1 [Compound 107]  CB1 receptor (Homo sapiens)        > 7.00
